- assay_target: T1, ARHGAP21, Q5T5U3
- T1 sequence (Q5T5U3 45-169, limits assumed, looked up): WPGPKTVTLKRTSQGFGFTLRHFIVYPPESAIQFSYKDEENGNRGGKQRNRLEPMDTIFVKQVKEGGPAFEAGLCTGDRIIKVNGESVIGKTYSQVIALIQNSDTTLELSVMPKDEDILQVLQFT
- test_protocol: holdup assay
- Set-up: key: below the threshold = too weak to quantify, mostly under pKd 3.1 to 4
- condition_label: plain residues with an end cap or a label only (N-terminal biotin on a linker: ado-ado)
outcome_measure: pKd

Worked examples, 5 binders total:
NTANRRTTPV [CACNG2, Q9Y698] :: 3.86
PYSESDDDWC [CACNA1A, O00555] :: 4.17
DTKNYKQTSV [CRIPT, Q9P021] :: 3.75
NISYRRESAI [KCNJ4, P48050] :: below the threshold
GEDRSPPTAL [MKNK1, Q9BUB5] :: below the threshold

Per the records, this binder ( RQKEVRESKC [SCN8A, Q9UQD0] ) has pKd equal to below the threshold

Per the records, this binder ( EDLEDEWEVI [TECPR2, O15040] ) has pKd equal to below the threshold

Per the records, this binder ( SRSVVESDEL [MYPN, Q86TC9] ) has pKd equal to 3.51
